Data provenance: ChEMBL document CHEMBL3091367

test system: A549; experiment: Cytotoxicity against human A549 cells after 48 hrs by MTT assay; type: functional, cell-based; conditions: A549, 48 h
Measured property: pIC50
Formally, pIC50 is defined as -log10 of the concentration c, with c in mol/L.

Can you share its pIC50? I mean this compound: CCCNC(=O)O[C@@H]1c2cc3c(cc2[C@@H](c2cc(OC)c(O)c(OC)c2)[C@H]2C(=O)OC[C@@H]21)OCO3
5.05

Please give the result for COc1cc([C@@H]2c3cc4c(cc3[C@@H](OC(=O)NC3CCCC3)[C@H]3COC(=O)[C@H]23)OCO4)cc(OC)c1O too.
5.34

Please give the result for COc1cc([C@@H]2c3cc4c(cc3[C@@H](OC(=O)N3CCN(c5ccc(F)cc5)CC3)[C@H]3COC(=O)[C@H]23)OCO4)cc(OC)c1O too.
5.28

Please give the result for COc1cc([C@@H]2c3cc4c(cc3[C@@H](OC(=O)N[C@@H](Cc3ccccc3)C(=O)N3CCN(c5ccc([N+](=O)[O-])cc5)CC3)[C@H]3COC(=O)[C@H]23)OCO4)cc(OC)c1O too.
5.02

Please give the result for COc1cc([C@@H]2c3cc4c(cc3[C@@H](OC(=O)N[C@H](C(=O)N3CCN(c5ccc([N+](=O)[O-])cc5)CC3)C(C)C)[C@H]3COC(=O)[C@H]23)OCO4)cc(OC)c1O too.
5.08

Please give the result for COc1cc([C@@H]2c3cc4c(cc3[C@@H](OC(=O)N3CCN(c5ccc([N+](=O)[O-])cc5)CC3)[C@H]3COC(=O)[C@H]23)OCO4)cc(OC)c1OC(=O)N1CCN(c2ccc([N+](=O)[O-])cc2)CC1 too.
4.24

Please give the result for COc1cc([C@@H]2c3cc4c(cc3[C@@H](OC(=O)NC3CCCCC3)[C@H]3COC(=O)[C@H]23)OCO4)cc(OC)c1O too.
4.58

Please give the result for COc1cc([C@@H]2c3cc4c(cc3[C@@H](OC(=O)N3CCN(C5CCCC5)CC3)[C@H]3COC(=O)[C@H]23)OCO4)cc(OC)c1O too.
5.41

Please give the result for COc1cc([C@@H]2c3cc4c(cc3[C@@H](OC(=O)NC3CC3)[C@H]3COC(=O)[C@H]23)OCO4)cc(OC)c1O too.
4.74

Please give the result for COc1cc([C@@H]2c3cc4c(cc3[C@@H](OC(=O)N3CCN(c5ccc([N+](=O)[O-])cc5)CC3)[C@H]3COC(=O)[C@H]23)OCO4)cc(OC)c1O too.
5.78

----------
system: A549; experiment: Cytotoxicity against human A549 cells after 48 hrs by MTT assay; type: functional, cell-based; conditions: A549, 48 h
Measured property: pIC50
Formally, pIC50 is defined as -log10 of the concentration c, with c in mol/L.

Can you share its pIC50? I mean this molecule: COc1cc([C@@H]2c3cc4c(cc3[C@@H](OC(=O)N3CCOCC3)[C@H]3COC(=O)[C@H]23)OCO4)cc(OC)c1O
5.07

Please give the result for COc1cc([C@@H]2c3cc4c(cc3[C@@H](OC(=O)N[C@@H](C)C(=O)N3CCN(c5ccc([N+](=O)[O-])cc5)CC3)[C@H]3COC(=O)[C@H]23)OCO4)cc(OC)c1O too.
4.72

Please give the result for COc1cc([C@@H]2c3cc4c(cc3[C@@H](OC(=O)N3CCN(C)CC3)[C@H]3COC(=O)[C@H]23)OCO4)cc(OC)c1O too.
5.38
